Below, each entry is listed with its recorded melting point.

// known answers, use as guide
INSERT INTO results (structure_smiles_string, assay_value) VALUES
  ('NCc1cccc(Nc2ncnc3[nH]cc(C(=O)c4ccccc4)c23)c1', '210 to 212 °C'),
  ('CC(=O)Nc1ccc(Nc2ncnc3[nH]cc(C(=O)c4ccccc4)c23)cc1', '263 to 264 °C'),
  ('CC(=O)Nc1cccc(Nc2ncnc3c2c(C(=O)c2ccccc2)cn3C)c1', '140 to 142 °C'),
  ('CC(C)(C)NC(=O)Nc1cccc(Nc2ncnc3[nH]cc(C(=O)c4ccccc4)c23)c1', '185 to 187 °C');

Check the records and state melting point for `Nc1cccc(Nc2ncnc3[nH]cc(C(=O)c4ccccc4)c23)c1`
280 to 282 °C

Check the records and state melting point for `CC(C)(C)OC(=O)Nc1ccc(Nc2ncnc3[nH]cc(C(=O)c4ccccc4)c23)cc1`
274 to 280 °C
